Origin of the recorded values: patent US4952408A

test-method-notes: lethal toxicity in normal mice after single i.v. injection
Format: in vivo, CD2 F1 mice
test-context: mouse, in vivo, iv; 3 mg kg^-1 i.v.; read-out: mice dead by day 8
property-measured: mortality at 192 h (%)
Give bare numbers, in %.

Entry CC[C@]1(O)C[C@H]2CN(CCc3c([nH]c4ccccc34)[C@@](C(=O)OC)(c3cc4c(cc3OC)N(C=O)[C@H]3[C@@](O)(C(=O)OC)[C@H](OC(C)=O)[C@]5(CC)C=CCN6CC[C@]43[C@@H]65)C2)C1 [free vincristine, vincristine] has what mortality at 192 h?
90

----------
test-method-notes: tissue drug levels of free and liposomal vincristine (radioimmunoassay)
Type: in vivo, CD2 F1 mice
test-context: mouse, liver, iv, 1 mg/kg, liver; 1 mg kg^-1; 2 hours; read-out: drug level in liver
property-measured: concentration at 2 h (ng/g)
Give bare numbers, in ng/g.

Entry CC[C@]1(O)C[C@H]2CN(CCc3c([nH]c4ccccc34)[C@@](C(=O)OC)(c3cc4c(cc3OC)N(C=O)[C@H]3[C@@](O)(C(=O)OC)[C@H](OC(C)=O)[C@]5(CC)C=CCN6CC[C@]43[C@@H]65)C2)C1 [free vincristine, vincristine] has what concentration at 2 h?
50

----------
test-method-notes: tissue drug levels of free and liposomal vincristine (radioimmunoassay)
Assay type: in vivo, CD2 F1 mice
test-context: mouse, brain, iv, 1 mg/kg, brain; 1.0 mg; 30'; read-out: vincristine level, brain
property-measured: concentration at 0.5 h (ng/g)
One number for each entry, in ng/g.

Entry CC[C@]1(O)C[C@H]2CN(CCc3c([nH]c4ccccc34)[C@@](C(=O)OC)(c3cc4c(cc3OC)N(C=O)[C@H]3[C@@](O)(C(=O)OC)[C@H](OC(C)=O)[C@]5(CC)C=CCN6CC[C@]43[C@@H]65)C2)C1 [free vincristine, vincristine] has what concentration at 0.5 h?
20

----------
test-method-notes: tissue drug levels of free and liposomal vincristine (radioimmunoassay)
Assay type: in vivo, CD2 F1 mice
test-context: mouse, spleen, iv, 1 mg/kg, spleen; 1.0 mg; 15'; read-out: vincristine level, spleen
property-measured: concentration at 0.25 h (ng/g)
Answers are plain numbers, in ng/g.

Entry CC[C@]1(O)C[C@H]2CN(CCc3c([nH]c4ccccc34)[C@@](C(=O)OC)(c3cc4c(cc3OC)N(C=O)[C@H]3[C@@](O)(C(=O)OC)[C@H](OC(C)=O)[C@]5(CC)C=CCN6CC[C@]43[C@@H]65)C2)C1 [free vincristine, vincristine] has what concentration at 0.25 h?
84

----------
test-method-notes: tissue drug levels of free and liposomal vincristine (radioimmunoassay)
Assay type: in vivo, CD2 F1 mice
test-context: mouse, spleen, iv, 1 mg/kg, spleen; 1.0 mg; 24h; read-out: vincristine level, spleen
property-measured: concentration at 24 h
# include the unit after the value

Entry CC[C@]1(O)C[C@H]2CN(CCc3c([nH]c4ccccc34)[C@@](C(=O)OC)(c3cc4c(cc3OC)N(C=O)[C@H]3[C@@](O)(C(=O)OC)[C@H](OC(C)=O)[C@]5(CC)C=CCN6CC[C@]43[C@@H]65)C2)C1 [free vincristine, vincristine] has what concentration at 24 h?
43 ng/g

----------
test-method-notes: tissue drug levels of free and liposomal vincristine (radioimmunoassay)
Assay type: in vivo, CD2 F1 mice
test-context: mouse, spleen, iv, 1 mg/kg, spleen; 1.0 mg; 4h; read-out: vincristine level, spleen
property-measured: concentration at 4 h (ng/g)
Numbers only, in ng/g.

Entry CC[C@]1(O)C[C@H]2CN(CCc3c([nH]c4ccccc34)[C@@](C(=O)OC)(c3cc4c(cc3OC)N(C=O)[C@H]3[C@@](O)(C(=O)OC)[C@H](OC(C)=O)[C@]5(CC)C=CCN6CC[C@]43[C@@H]65)C2)C1 [free vincristine, vincristine] has what concentration at 4 h?
112
